- Tested on: GTPase KRas (Homo sapiens), P01116 [G12C]
- experiment_summary: Binding affinity to His-tagged KRAS (1 to 169 residues) G12C mutant (unknown origin) at 10 to 100 uM after 24 hrs by mass spectrometric method
measured_attribute: Activity

Return Activity measured with GTPase KRas (Homo sapiens), P01116 [G12C] given this molecule: "C=Cc1ccccc1S(=O)(=O)NCCNc1ccc2ccccc2c1"
10 to 15%

----------
- Test system: GTPase KRas (Homo sapiens), P01116 [G12C]
- experiment_summary: Binding affinity to His-tagged KRAS (1 to 169 residues) G12C mutant (unknown origin) at 10 to 100 uM after 24 hrs by mass spectrometric method
measured_attribute: Activity

In the examples that follow, each entry is paired with its recorded Activity.
INSERT INTO assay_data (smiles_string, measured_attribute, result) VALUES
  ('C=Cc1cccc(S(=O)(=O)NC[C@@H]2C[C@@H]3O[C@H](COCc4ccccc4)[C@@H](OCc4ccccc4)[C@@H]3O2)c1', 'Activity', '> 15%'),
  ('C=Cc1ccc(S(=O)(=O)NC[C@@H]2C[C@@H]3O[C@H](CO)[C@@H](OCc4ccccc4)[C@@H]3O2)cc1', 'Activity', '5 to 10%'),
  ('C=CS(=O)(=O)NCCNc1cccc2ccccc12', 'Activity', '10 to 15%'),
  ('C=Cc1ccc(S(=O)(=O)NC[C@H]2C[C@@H]3O[C@H](CO)[C@@H](OCc4ccccc4)[C@@H]3O2)cc1', 'Activity', '10 to 15%');

Now for the compound whose Activity we want.
Fill blank: measured Activity of the compound "C=Cc1ccc(S(=O)(=O)NCCNc2ccc3ccccc3c2)cc1" is ____.
5 to 10%

----------
- Tested on: GTPase KRas (Homo sapiens), P01116 [G12C]
- experiment_summary: Binding affinity to His-tagged KRAS (1 to 169 residues) G12C mutant (unknown origin) at 10 to 100 uM after 24 hrs by mass spectrometric method
This listing pairs compounds with measured Activity.

In the examples that follow, each entry is paired with its recorded Activity.
INSERT INTO assay_data (smiles_string, test_system, measured_attribute, result) VALUES
  ('C=Cc1cccc(S(=O)(=O)NCCOc2cccc3ccccc23)c1', 'GTPase KRas (Homo sapiens), P01116 [G12C]', 'Activity', '5 to 10%'),
  ('C=CS(=O)(=O)NC[C@H]1C[C@@H]2O[C@H](CO)[C@@H](OCc3ccccc3)[C@@H]2O1', 'GTPase KRas (Homo sapiens), P01116 [G12C]', 'Activity', '5 to 10%'),
  ('C=Cc1ccccc1S(=O)(=O)NCCNc1cccc2ccccc12', 'GTPase KRas (Homo sapiens), P01116 [G12C]', 'Activity', '> 15%'),
  ('C=CC(=O)NC[C@H]1C[C@@H]2O[C@H](COCc3ccccc3)[C@@H](OCc3ccccc3)[C@@H]2O1', 'GTPase KRas (Homo sapiens), P01116 [G12C]', 'Activity', '0.5 to 5%'),
  ('C=Cc1ccccc1S(=O)(=O)NC[C@@H]1C[C@@H]2O[C@H](CO)[C@@H](OCc3ccccc3)[C@@H]2O1', 'GTPase KRas (Homo sapiens), P01116 [G12C]', 'Activity', '> 15%'),
  ('C=Cc1ccccc1S(=O)(=O)NCCOc1ccc2ccccc2c1', 'GTPase KRas (Homo sapiens), P01116 [G12C]', 'Activity', '5 to 10%'),
  ('C=CC(=O)NC[C@H]1C[C@@H]2O[C@H](CO)[C@@H](OCc3ccccc3)[C@@H]2O1', 'GTPase KRas (Homo sapiens), P01116 [G12C]', 'Activity', '0.5 to 5%'),
  ('C=CS(=O)(=O)NCCOc1cccc2ccccc12', 'GTPase KRas (Homo sapiens), P01116 [G12C]', 'Activity', '10 to 15%');

Now for the compound whose Activity we want.
Fill blank: measured Activity of the compound "C=Cc1ccccc1S(=O)(=O)NC[C@H]1C[C@@H]2O[C@H](COCc3ccccc3)[C@@H](OCc3ccccc3)[C@@H]2O1" is ____.
10 to 15%

----------
This listing pairs molecules with measured Activity.
- Tested on: GTPase KRas (Homo sapiens), P01116 [G12C]
- experiment_summary: Binding affinity to His-tagged KRAS (1 to 169 residues) G12C mutant (unknown origin) at 10 to 100 uM after 24 hrs by mass spectrometric method

In the examples that follow, each entry is paired with its recorded Activity.
INSERT INTO results (smiles_string, measured_attribute, result) VALUES
  ('C=Cc1cccc(S(=O)(=O)NC[C@H]2C[C@@H]3O[C@H](CO)[C@@H](OCc4ccccc4)[C@@H]3O2)c1', 'Activity', '5 to 10%'),
  ('C=Cc1cccc(S(=O)(=O)NC[C@H]2C[C@@H]3O[C@H](COCc4ccccc4)[C@@H](OCc4ccccc4)[C@@H]3O2)c1', 'Activity', '5 to 10%'),
  ('C=Cc1ccccc1S(=O)(=O)NC[C@H]1C[C@@H]2O[C@H](CO)[C@@H](OCc3ccccc3)[C@@H]2O1', 'Activity', '10 to 15%');

Fill blank: measured Activity of the molecule "C=Cc1ccc(S(=O)(=O)NCCNc2cccc3ccccc23)cc1" is ____.
10 to 15%

And "C=Cc1ccccc1S(=O)(=O)NC[C@@H]1C[C@@H]2O[C@H](COCc3ccccc3)[C@@H](OCc3ccccc3)[C@@H]2O1" ?
10 to 15%

----------
- System: GTPase KRas (Homo sapiens), P01116 [G12C]
- experiment_summary: Binding affinity to His-tagged KRAS (1 to 169 residues) G12C mutant (unknown origin) at 10 to 100 uM after 24 hrs by mass spectrometric method
This listing pairs compounds with measured Activity.

INSERT INTO results (smiles_string, measured_attribute, result) VALUES
  ('C=CS(=O)(=O)NCCNc1ccc2ccccc2c1', 'Activity', '5 to 10%'),
  ('C=CS(=O)(=O)NCCOc1ccc2ccccc2c1', 'Activity', '10 to 15%'),
  ('C=Cc1ccc(S(=O)(=O)NC[C@@H]2C[C@@H]3O[C@H](COCc4ccccc4)[C@@H](OCc4ccccc4)[C@@H]3O2)cc1', 'Activity', '10 to 15%'),
  ('C=CC(=O)NC[C@@H]1C[C@@H]2O[C@H](CO)[C@@H](OCc3ccccc3)[C@@H]2O1', 'Activity', '0.5 to 5%'),
  ('C=Cc1cccc(S(=O)(=O)NC[C@@H]2C[C@@H]3O[C@H](CO)[C@@H](OCc4ccccc4)[C@@H]3O2)c1', 'Activity', '10 to 15%'),
  ('C=Cc1cccc(S(=O)(=O)NCCOc2ccc3ccccc3c2)c1', 'Activity', '10 to 15%'),
  ('C=Cc1ccc(S(=O)(=O)NC[C@H]2C[C@@H]3O[C@H](COCc4ccccc4)[C@@H](OCc4ccccc4)[C@@H]3O2)cc1', 'Activity', '> 15%'),
  ('C=CC(=O)NC[C@@H]1C[C@@H]2O[C@H](COCc3ccccc3)[C@@H](OCc3ccccc3)[C@@H]2O1', 'Activity', '0.5 to 5%');

Fill blank: measured Activity of the compound "C=Cc1ccccc1S(=O)(=O)NCCOc1cccc2ccccc12" is ____.
10 to 15%

And "C=CS(=O)(=O)NC[C@H]1C[C@@H]2O[C@H](COCc3ccccc3)[C@@H](OCc3ccccc3)[C@@H]2O1" ?
10 to 15%

And "C=CS(=O)(=O)NC[C@@H]1C[C@@H]2O[C@H](COCc3ccccc3)[C@@H](OCc3ccccc3)[C@@H]2O1" ?
10 to 15%

And "C=Cc1ccc(S(=O)(=O)NCCOc2ccc3ccccc3c2)cc1" ?
10 to 15%

The reported numbers originate from ChEMBL document CHEMBL3880441.
